meta.source: paper PMC7489219

Documented inhibition at 10 µM across a set of molecules
- Test system: primary mouse cortical neurons
- Construct: primary cortical neurons, DIV 10
- assay explanation: cells
- Parameters: Protection from NMDA-induced (30 uM, 10 min) neuronal death; Hoechst nuclear morphology by automated microscopy
- assay setup: Cortical neurone, 20 h, read-out: % inhibition, inhibition of NMDA-induced cell death (protection score), 30 min pre-treatment
Where a name gives a salt, the structure may show the parent alone.

| molecule | inhibition at 10 µM [%] |
| --- | --- |
| COc1cc(C=O)ccc1O [Vanillin] | -1.73 |
| CCN(CC)CC#CCOC(=O)C(O)(c1ccccc1)C1CCCCC1 (stereo not shown) [Oxybutynin (Ditropan)] | 37.3 |
| COc1ccc(/C=C/C(=O)Nc2ccccc2C(=O)O)cc1OC [Tranilast (SB 252218)] | -11.4 |
| Cc1c(OCC(F)(F)F)ccnc1C[S+]([O-])c1nc2ccccc2[nH]1 (stereo not shown) [Lansoprazole] | -7.28 |
| Cc1c(N)nc([C@H](CC(N)=O)NC[C@H](N)C(N)=O)nc1C(=O)N[C@H](C(=O)N[C@H](C)[C@@H](O)[C@H](C)C(=O)N[C@H](C(=O)NCCc1nc(-c2nc(C(=O)NCCC[S+](C)C)cs2)cs1)[C@@H](C)O)[C@@H](O[C@@H]1O[C@@H](CO)[C@@H](O)[C@H](O)[C@@H]1O[C@H]1O[C@H](CO)[C@@H](O)[C@H](OC(N)=O)[C@@H]1O)c1cnc[nH]1 [Bleomycin sulfate] | -2.58 |
| C=CCc1ccc(O)c(-c2cc(CC=C)ccc2O)c1 [Magnolol] | -3.4 |
| OC[C@H]1OC(O)[C@H](O)[C@@H](O)[C@@H]1O (stereo partly drawn) [Dextrose (D-glucose)] | -6.8 |
